FYI, the data here is from patent US5571822A.

# System: RXF-393
# Assay details: NCI in vitro tumor cell screen, RXF-393 renal cancer
# Format: cell-based
# Experimental context: Homo sapiens
# GI50 annotations

{"columns": ["Compound", "Target or system", "GI50"],
 "data": [
  ["O=c1cc(-c2cccc(OCc3ccccc3)c2)[nH]c2cc3c(cc12)OCO3 [compound 19]", "RXF-393", "0.407 µM"],
  ["CCOc1cccc(-c2cc(=O)c3cc4c(cc3[nH]2)OCO4)c1 [compound 18]", "RXF-393", "0.275 µM"],
  ["O=c1cc(-c2cccc(OC(F)(F)F)c2)[nH]c2cc3c(cc12)OCO3 [compound 17]", "RXF-393", "0.0407 µM"],
  ["Nc1cccc(-c2cc(=O)c3cc4c(cc3[nH]2)OCO4)c1 [compound 10]", "RXF-393", "0.603 µM"]
]}
